src = patent US20220127247A1

target: delF508-CFTR (Homo sapiens, UniProt P13569, DEL508-508); construct: expressed in transfected cells; test: Measurement of delF508-CFTR-HRP surface expression in CFBE41o- cells; format: cell-based; settings: efficacy relative to reference compound 3-(6-(1-(2,2-difluorobenzo[d][1,3]dioxol-5-yl)cyclopropane-1-carboxamido)-3-methylpyridin-2-yl)benzoic acid; CFBE41o- cells, 24 h; read-out: DelF508-CFTR-HRP Amax %
Sequence (P13569 with tags, fused parts or gaps DEL508-508): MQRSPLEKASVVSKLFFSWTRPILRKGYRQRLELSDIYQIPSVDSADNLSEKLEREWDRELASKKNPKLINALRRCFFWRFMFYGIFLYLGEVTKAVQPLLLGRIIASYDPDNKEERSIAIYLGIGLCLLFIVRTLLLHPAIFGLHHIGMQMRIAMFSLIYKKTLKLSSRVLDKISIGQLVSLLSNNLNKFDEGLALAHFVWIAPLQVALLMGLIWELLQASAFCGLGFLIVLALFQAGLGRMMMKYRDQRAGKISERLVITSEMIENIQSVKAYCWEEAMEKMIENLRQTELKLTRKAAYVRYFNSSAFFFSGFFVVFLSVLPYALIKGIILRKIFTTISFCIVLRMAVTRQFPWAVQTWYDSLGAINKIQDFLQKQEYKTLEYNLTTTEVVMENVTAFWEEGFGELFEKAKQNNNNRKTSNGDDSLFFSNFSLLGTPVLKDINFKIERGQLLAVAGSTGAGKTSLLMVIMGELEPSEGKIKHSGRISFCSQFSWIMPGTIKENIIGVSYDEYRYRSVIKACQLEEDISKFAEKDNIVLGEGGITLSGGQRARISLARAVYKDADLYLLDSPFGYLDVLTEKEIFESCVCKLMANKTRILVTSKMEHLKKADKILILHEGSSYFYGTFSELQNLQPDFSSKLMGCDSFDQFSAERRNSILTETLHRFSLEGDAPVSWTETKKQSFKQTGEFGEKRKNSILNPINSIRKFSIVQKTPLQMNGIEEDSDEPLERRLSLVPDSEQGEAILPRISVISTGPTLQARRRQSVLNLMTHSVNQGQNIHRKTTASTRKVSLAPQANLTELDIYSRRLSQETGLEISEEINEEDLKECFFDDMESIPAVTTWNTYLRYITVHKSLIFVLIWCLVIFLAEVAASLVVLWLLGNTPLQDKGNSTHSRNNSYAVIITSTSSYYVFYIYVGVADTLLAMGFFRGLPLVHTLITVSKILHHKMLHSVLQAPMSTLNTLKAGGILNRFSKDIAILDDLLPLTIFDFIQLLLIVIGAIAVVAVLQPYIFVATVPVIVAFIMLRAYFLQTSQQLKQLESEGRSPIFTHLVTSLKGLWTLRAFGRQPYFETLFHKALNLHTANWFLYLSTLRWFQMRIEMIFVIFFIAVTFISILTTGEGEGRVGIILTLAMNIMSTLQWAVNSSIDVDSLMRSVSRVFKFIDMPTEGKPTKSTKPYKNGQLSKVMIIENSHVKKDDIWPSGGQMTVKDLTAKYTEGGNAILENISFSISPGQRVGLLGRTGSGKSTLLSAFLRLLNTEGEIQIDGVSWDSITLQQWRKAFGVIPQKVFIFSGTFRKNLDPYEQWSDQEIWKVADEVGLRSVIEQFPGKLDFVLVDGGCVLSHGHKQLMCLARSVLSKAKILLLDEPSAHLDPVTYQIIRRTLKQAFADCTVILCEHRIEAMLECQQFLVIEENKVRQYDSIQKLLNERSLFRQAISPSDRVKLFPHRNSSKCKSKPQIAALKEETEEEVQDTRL
measured.attribute: Emax (%)

[P] Cc1ccccc1-c1nc(NS(=O)(=O)c2cccc(N(C)CC(C)(C)C(=O)O)n2)ccc1C(F)(F)F
[Q] CC(C)c1ccncc1-c1nc(NS(=O)(=O)c2cccc(N3CCCC(C)(C(=O)O)C3)n2)ccc1C(F)(F)F (stereo not drawn)
[R] Cc1cccc(C)c1-c1nc(NS(=O)(=O)c2cccc(NCCCC(=O)O)n2)ccc1Cl
input: I would appreciate it if you could sort these 3 molecules by Emax, starting from the smallest number. // list labels; follow requested order
output: Q, P, R
(Q: 303%, P: 493%, R: 722%)

[a] Cc1c(F)cccc1-c1nc(NS(=O)(=O)c2cccc(N3CCC(C)(CC(=O)O)CC3)n2)ccc1C(F)(F)F
[b] Cc1ccccc1-c1nc(NS(=O)(=O)c2cccc(OCCC(=O)O)n2)ccc1C(F)(F)F
input: Which record shows the lower Emax: the first, a , or the second, b ? Lab note: record the label of whichever item you select.
output: b

[A] O=C(O)CC1CCN(c2cccc(S(=O)(=O)Nc3ccc(C(F)(F)F)c(-c4ccccc4C4CCC4)n3)n2)CC1
[B] Cc1ccccc1-c1nc(NS(=O)(=O)c2cccc(N[C@H]3[C@@H](C(=O)O)[C@H]4C=C[C@@H]3C4)n2)ccc1C(F)(F)F (racemic) [107a 107b (racemic mixture)]
input: Larger number for Emax: A , or B ? Lab note: record the label of whichever item you select.
output: B

[I] Cc1cccc(C)c1-c1nc(NS(=O)(=O)c2cccc(N3CCC[C@H]3c3nnn[nH]3)n2)ccc1Cl
[II] CCCCN(CCC(=O)O)c1cccc(S(=O)(=O)Nc2ccc(C(F)(F)F)c(-c3ccccc3C)n2)n1
[III] Cc1ccccc1-c1nc(NS(=O)(=O)c2cccc(N3CCC[C@@H](CC(=O)O)C3)n2)ccc1C(F)(F)F
input: Arrange the 3 entries by Emax so the values rise. // list labels; follow requested order
output: I, II, III

---

Biological target: delF508-CFTR (Homo sapiens, UniProt P13569, DEL508-508)
Construct: expressed in transfected cells
Assay: Measurement of delF508-CFTR-HRP surface expression in CFBE41o- cells
Type: cell-based
Settings: HRP-tagged delF508-CFTR in CFBE41o- cells, 24 h with compound, luminescence, 10-point curve, top 10 μM
Procedure: Measurement of delF508-CFTR-HRP Surface Expression in CFBE41o-Cells This assay quantifies the cell surface expressions of the mutant CFTR channel using an extracellular HRP tag. […] The median activity for the lowest concentration of the compounds on each assay plate was calculated and this value was used to normalize the signal for each well on the respective plate. […] The median value was determined and used to calculate compound activities as described below. […]
pEC50: −log10 of the molar value.
measured.attribute: pEC50

Reference set, count: 2
{"line.notation": "CC1(C(=O)O)CCN(c2cccc(S(=O)(=O)Nc3ccc(C(F)(F)F)c(-c4ccccc4-c4ccccc4)n3)n2)CC1", "measured.attribute": "pEC50", "value.observed": 6.10}
{"line.notation": "Cc1cccc(C)c1-c1nc(NS(=O)(=O)c2cccc(N3CCC[C@H]3c3nnn[nH]3)n2)ccc1Cl", "measured.attribute": "pEC50", "value.observed": 5.76}

[A] Cc1ccccc1-c1nc(NS(=O)(=O)c2cccc(N(CCC(=O)O)C3CC3)n2)ccc1C(F)(F)F
[B] CC(C)c1ccccc1-c1nc(NS(=O)(=O)c2cccc(N3CCC(C)(CC(=O)O)CC3)n2)ccc1C(F)(F)F
input: Which record shows the lower pEC50: the first, A , or the second, B ? Lab note: record the label of whichever item you select.
output: A
(A: 5.73, B: 6.00)

---

molecular target: delF508-CFTR (Homo sapiens, UniProt P13569, DEL508-508); construct: expressed in transfected cells; assay: Measurement of delF508-CFTR-HRP surface expression in CFBE41o- cells; assay type: cell-based; conditions: efficacy relative to reference compound 3-(6-(1-(2,2-difluorobenzo[d][1,3]dioxol-5-yl)cyclopropane-1-carboxamido)-3-methylpyridin-2-yl)benzoic acid; CFBE41o- cells, 24 h; read-out: DelF508-CFTR-HRP Amax %
measured.attribute: Emax (%)

Reference set, count: 10
{"compound": "Cc1c(F)cccc1-c1nc(NS(=O)(=O)c2cccc(N3CCC(C)(CC(=O)O)C3)n2)ccc1C(F)(F)F (stereo not drawn)", "measurement.target": "delF508-CFTR (Homo sapiens, UniProt P13569, DEL508-508)", "Emax [%]": 369}
{"compound": "Cc1c(F)cccc1-c1nc(NS(=O)(=O)c2cccc(N3CCCC(C)(CC(=O)O)C3)n2)ccc1C(F)(F)F (stereo not drawn)", "measurement.target": "delF508-CFTR (Homo sapiens, UniProt P13569, DEL508-508)", "Emax [%]": 867}
{"compound": "Cc1ccccc1-c1nc(NS(=O)(=O)c2cccc(N[C@@H]3CCC[C@H](C(=O)O)C3)n2)ccc1C(F)(F)F (racemic) [106a 106b (racemic mixture)]", "measurement.target": "delF508-CFTR (Homo sapiens, UniProt P13569, DEL508-508)", "Emax [%]": 392}
{"compound": "Cc1ccc(F)cc1-c1nc(NS(=O)(=O)c2cccc(N3CCC(C)(CC(=O)O)CC3)n2)ccc1C(F)(F)F", "measurement.target": "delF508-CFTR (Homo sapiens, UniProt P13569, DEL508-508)", "Emax [%]": 529}
{"compound": "CC1(C(=O)O)CCN(c2cccc(S(=O)(=O)Nc3ccc(C(F)(F)F)c(-c4ccccc4-c4ccncc4)n3)n2)CC1", "measurement.target": "delF508-CFTR (Homo sapiens, UniProt P13569, DEL508-508)", "Emax [%]": 189}
{"compound": "Cc1cccc(C)c1-c1nc(NS(=O)(=O)c2ccnc(NC(C)CC(=O)O)c2)ccc1Cl (stereo not drawn)", "measurement.target": "delF508-CFTR (Homo sapiens, UniProt P13569, DEL508-508)", "Emax [%]": 84}
{"compound": "Cc1ccccc1-c1nc(NS(=O)(=O)c2cccc(N(C)CC3(C(=O)O)CCOCC3)n2)ccc1C(F)(F)F", "measurement.target": "delF508-CFTR (Homo sapiens, UniProt P13569, DEL508-508)", "Emax [%]": 547}
{"compound": "O=C(O)CCCCNc1cccc(S(=O)(=O)Nc2ccc(C(F)(F)F)c(-c3ccccc3C3CC3)n2)n1", "measurement.target": "delF508-CFTR (Homo sapiens, UniProt P13569, DEL508-508)", "Emax [%]": 507}
{"compound": "CCCN(CCCC(=O)O)c1cccc(S(=O)(=O)Nc2ccc(Cl)c(-c3ccccc3C)n2)n1", "measurement.target": "delF508-CFTR (Homo sapiens, UniProt P13569, DEL508-508)", "Emax [%]": 549}
{"compound": "Cc1ccccc1-c1nc(NS(=O)(=O)c2cccc(N(CCC(=O)O)C3CCC3)n2)ccc1C(F)(F)F", "measurement.target": "delF508-CFTR (Homo sapiens, UniProt P13569, DEL508-508)", "Emax [%]": 802}

[I] CCC(CC(=O)O)Nc1cc(S(=O)(=O)Nc2ccc(Cl)c(-c3c(C)cccc3C)n2)ccn1 (stereo not drawn)
[II] COCCN(CCCC(=O)O)c1cccc(S(=O)(=O)Nc2ccc(C(F)(F)F)c(-c3ccccc3C)n2)n1
[III] Cc1ccccc1-c1nc(NS(=O)(=O)c2cccc(SCCC(=O)O)n2)ccc1C(F)(F)F
input: Please give the order of these compounds when sorted by Emax, largest value leading. // list labels; follow requested order
output: II, I, III
(II: 839%, I: 291%, III: 196%)

---

biological target: delF508-CFTR (Homo sapiens, UniProt P13569, DEL508-508); construct: expressed in transfected cells; assay: Measurement of delF508-CFTR-HRP surface expression in CFBE41o- cells; type: cell-based; conditions: HRP-tagged delF508-CFTR in CFBE41o- cells, 24 h with compound, luminescence, 10-point curve, top 10 μM
measured.attribute: EC50 (nM)

{"line.notation": "Cc1ccccc1-c1nc(NS(=O)(=O)c2cccc(N(CCCC(=O)O)CCC(F)(F)F)n2)ccc1C(F)(F)F", "EC50 [nM]": 1370}

[a] Cc1ccccc1-c1nc(NS(=O)(=O)c2cccc(N(C)CC3(C(=O)O)CCOCC3)n2)ccc1C(F)(F)F
[b] CCc1ccc(F)cc1-c1nc(NS(=O)(=O)c2cccc(N(CCC(=O)O)CC3CC3)n2)ccc1C(F)(F)F
input: Which record shows the lower EC50: the first, a , or the second, b ? Lab note: record the label of whichever item you select.
output: b
